experiment: Her2 expression decrease, cell viability multiplex – SKBR3 breast tumor cells, AlphaScreen, ATP viability, primary screen (AID 461); settings: SKBR3 Her2 protein level, 18-24 h, measured here: SKBR3 viability, ATP luminescence, at 10 µM;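 also: percent of carrier control wells set as 100% viability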
attributeMeasured: viability (%)
Only the number, expressed in %, is required.

"Cc1n[nH]c(C)c1N1C(=O)c2cccc3cc(Br)cc(c23)C1=O" has a reported viability of 74.5

For this compound ( "COc1ccc(NS(=O)(=O)c2ccc(NC(C)=O)cc2)cc1OC" ), measured viability is 98.5

Quick note, viability for "CCOC(=O)c1ccccc1NC(=O)c1ccc2c(=O)n3c(nc2c1)CCCCC3" landed at 87.5

----------
test: RAM signaling pathway blockade in yeast – S. cerevisiae, Pdr1DBD-CYC8 efflux-inhibited sensitized strain, primary screen (AID 1298);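 also: 0% = DMSO untreated cells without growth and 100% = 10 µM 1-NA-PP1 full growth; higher means more yeast growth rescued from 5-FOA killing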; details: S. cerevisiae cbk1-as DSE1-URA3 strain, 5-FOA growth OD615, 2 d; at 50 µM; stronger effect = higher value
RAM network inhibition listing for selected compounds.
State just the number; it will be interpreted in %.

Example compounds with recorded RAM network inhibition:
CCOc1ccc(NC(=O)CN(c2cc(C)cc(C)c2)S(=O)(=O)c2c(C)noc2C)cc1 = 8.99
COc1cccc(C2CC(c3ccc(C)cc3)Nc3nc(N)nn32)c1 (stereo unspecified) = -0.56
CCN(CC)CCN1C(=O)c2oc3ccc(F)cc3c(=O)c2C1c1ccncc1 (stereo unspecified) = 2.14
CC(=O)NCc1nc2ccccc2n1C(C)C = 3.6
COc1ccc(CCNC(=O)c2cc3sc(Cl)cc3n2C)cc1OC = 1.25

Sure, the documented RAM network inhibition for COc1ccc(C2CC(c3cccc(OC)c3)n3nc(N)nc3N2)cc1 (stereo unspecified) is -1.58

Memo: "Cn1c(C(=O)NCCc2ccsc2)cc2c(=O)n(C)c3ccccc3c21" , reported RAM network inhibition: 4.41

The recorded RAM network inhibition for entry O=C(COC(=O)C1CC(=O)N(C2CCCCC2)C1)c1ccc(F)cc1 (stereo unspecified) equals 2.97

The measured RAM network inhibition associated with "Cc1ccc(S(=O)(=O)NCC(=O)N2CCCCC2)cc1" reads 1.88

So, CCSC1=C(C#N)C(c2cccc(O)c2)CC(=O)N1 (stereo unspecified) ? Its RAM network inhibition was 3.85

response.value for COC(=O)c1nc2n(n1)C(c1ccc(OC)c(OC)c1)C(C(=O)OC1CCCCC1)=C(C)N2 (stereo unspecified) (field: RAM network inhibition) = 6.75

----------
assay: viability of PTEN-null HCT116 cells – cell-based, HCT116 clonal line, CellTiter-Glo, pilot screen (AID 824); conditions: HCT116 PTEN-deleted viability, 60 h, at 10 µM;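 also: 0% = 20 µM Hyamine control and 100% = vehicle cell control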
Records with an inconclusive call do not appear. The source made the active and inactive calls.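 How the source made its calls: active means viability at or below 27.92% in each of two runs, the all-compound median minus 4 SD; inconclusive means no clear call, values can overlap the other calls; inactive means the rest.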
Could you please pick one outcome from this set? active, inactive

COC(=O)c1ccc(-c2nn(C)c(=O)c3ccccc23)cc1 = inactive
CCC(C)(NC(=O)CNC(C)=O)C(=O)NC1CCCCC1 (stereo not drawn) = inactive
CC1=C(C(N)=O)C(c2ccccn2)n2nc(-c3ccccc3Cl)nc2N1 (stereo not drawn) = inactive
COc1ccc(CNc2oc(-c3ccccc3)nc2C#N)cc1 = inactive
c1ccc(-c2nnc(SCc3nc4ccccc4[nH]3)o2)cc1 = inactive

Prompt line: Record request — test call for Cc1c(C(=O)OC2CCCC2)[nH]c2c1C(=O)CC(c1ccco1)C2 (stereo not drawn)
Response line: active

Prompt line: Tell me the assay call for "COc1ccc(-n2nnnc2SCC(=O)N2CCOCC2)cc1" please.
Response line: inactive

Prompt line: Can you look up the reported call for "CCN(CC)C(=O)Cn1ncc2c1-c1ccccc1OC2" for me?
Response line: inactive

Prompt line: Please let me know the test result on file for "COc1cccc(NC(=O)CSc2nnc(Cc3cccn3C)n2-c2ccc(F)cc2)c1" .
Response line: inactive

Prompt line: Kindly provide the recorded test outcome for the following molecule: Cc1nnc(N2C(=O)C(O)=C(C(=O)c3ccco3)C2c2ccc(F)cc2)s1 (stereo not drawn)
Response line: inactive

Prompt line: Answer briefly: the call reported for "CCOc1ccccc1C(=O)Nc1nnc(CC)s1" in this assay.
Response line: inactive

Prompt line: Hi team, can someone confirm the assay call for CC(NC(=O)C1CCC1)c1ccc2c(c1)OCO2 (stereo not drawn) ?
Response line: inactive

Prompt line: Please state the recorded outcome for this molecule: "C=CCOC(=O)COc1ccc2c(C)c(C)c(=O)oc2c1C"
Response line: inactive

----------
assay: RAM signaling pathway blockade in yeast – S. cerevisiae, Pdr1DBD-CYC8 efflux-inhibited sensitized strain, primary screen (AID 1298);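 also: 0% = DMSO untreated cells without growth and 100% = 10 µM 1-NA-PP1 full growth; higher means more yeast growth rescued from 5-FOA killing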; details: S. cerevisiae cbk1-as DSE1-URA3 strain, 5-FOA growth OD615, 2 d; at 50 µM; stronger effect = higher value
Some compounds, each annotated with its measured RAM network inhibition.
# value in %; strip the unit string

Example results:
COC(=O)c1c(NC(=O)c2nc3ccccc3s2)sc2c1CCN(C(C)=O)C2 = 5.96
O=C(O)CC(NC(=O)OCc1ccccc1)c1ccccc1 (stereo unspecified) = -0.33
O=C(Cn1c(=O)oc2cc(S(=O)(=O)N3CCCCCC3)ccc21)NC1CCCCC1 = 3.25
COC(=O)c1c(C)nn(-c2ccccc2)c1N = -0.37

// field: RAM network inhibition; key: "CCOc1ccc(-n2c(SCC(=O)NCc3ccco3)nc3c(c2=O)SCC3)cc1" ; value = 7.34

Entry "CCOC(=O)N1CCC(NC(=O)c2cnn3ccccc23)CC1" — recorded RAM network inhibition = 2.01

// field: RAM network inhibition; key: "c1ccc(-c2nnc(SCc3nc4ccccc4[nH]3)o2)cc1" ; value = 1.69

compound "CC(C)CCN(C)C1CCN(S(=O)(=O)c2ccc(F)cc2)CC1" , RAM network inhibition observed: 4.65

Kindly note the recorded RAM network inhibition for CCOC(=O)CSC(CC)C(=O)Nc1nnc(C(C)C)s1 (stereo unspecified) , which is 9.23

Form: compound = "CCCOC(=O)c1ccc(NC(=O)c2ccoc2C)cc1" ; RAM network inhibition = 4.37

Item: "Cc1ccc2[nH]c(=O)c3cc(C(=O)N4CCN(C(=O)c5ccco5)CC4)sc3c2c1" | RAM network inhibition: 7.89

----------
viability: recorded values
assay: H69AR cell proliferation blockers – human, duplicate replicates, primary screen (AID 580); conditions: H69AR lung tumor cells viability, ATP luminescence, 72 h; at 10 µM; stronger effect = lower value;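 also: 100% = mean luminescence of untreated wells and 0% = no signal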
Dear colleague, please return just the value in %, with no unit written.

COc1cccc(NC(=O)c2nc3nc(C)cc(C(F)F)n3n2)c1 = 84
CC1(C)CC(=O)CC(C2(O)C(=O)N(Cc3ccccc3)c3ccccc32)O1 (configuration not stated) = 44
CC(C)c1nnc(NC(=O)c2ccc(N3C(=O)CCC3=O)cc2)s1 = 92.5

Reported viability ( "CC(=O)c1cccc(NC(=O)CCOc2ccccc2)c1" ) = 98.3

The measured viability associated with "Cc1cc(C)n(-c2cc(N3CCOCC3)ncn2)n1" reads 91.7

Lab note: O=C(Nc1ccccc1)C1=C(O)CC(c2ccoc2)CC1=Nc1ccccc1 (configuration not stated) gave viability of 73

Summary for this compound, "O=C(Nc1ccc2snnc2c1)N1CCN(c2ccccc2)CC1" : viability is 85.3

// viability value for "O=C(CCNS(=O)(=O)c1cccs1)Nc1ccccc1F" : 108

Query "COc1cc(C(=O)NCCc2ccc3c(c2)OCCO3)ccc1OCC(=O)N1CCOCC1" yields viability of 93.3

Value of viability reported for the compound "COc1cccc(C(=O)Nc2cc(C)c3c(=O)oc4ccccc4c3n2)c1" is 81.9

In plain terms, "Cc1cc(C)nc(SCc2csc(N)n2)n1" has a documented viability of 90.1

Summary for this compound, "Cc1cccc(NC(=O)Nc2cccc(C#N)c2)n1" : viability is 84

----------
test: RAM signaling pathway blockade in yeast – S. cerevisiae, Pdr1DBD-CYC8 efflux-inhibited sensitized strain, primary screen (AID 1298);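 also: 0% = DMSO untreated cells without growth and 100% = 10 µM 1-NA-PP1 full growth; higher means more yeast growth rescued from 5-FOA killing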; conditions: S. cerevisiae cbk1-as DSE1-URA3 strain, 5-FOA growth OD615, 2 d; at 50 µM; stronger effect = higher value
Where RAM network inhibition equals or exceeds 2%, the correct label is 1 (yes); where it does not, the label is 0 (no).

CCC(=O)N1c2ccccc2-c2nnc(SC)nc2OC1c1ccc(OC)c(OC)c1 (stereo not given) = 0 (no)
Cc1ccc(OCC(=O)NCc2ccccn2)c(Br)c1 = 0 (no)
Cc1cc2ncc(-c3ccc(Cl)cc3)c(N)n2n1 = 0 (no)
COc1ccc(S(=O)(=O)N2CCCN(S(=O)(=O)c3ccc(OC)cc3C)CC2)c(C)c1 = 1 (yes)

Here is the next item to consider.
Prompt line: Is the recorded value of RAM network inhibition equal to or greater than 2% for this compound? CCOC(=O)C(C)Sc1nnc(Cc2cc(=O)[nH]c(=O)[nH]2)n1-c1ccc(Cl)cc1 (stereo not given)
Response line: 1 (yes)

----------
assay: reduced viability of SK-BR-3 breast cancer cells – cell-based, 24 h, human, pilot screen (AID 572); settings: SK-BR-3 viability, CellTiter-Glo luminescence, at 10 µM, stronger effect = lower value;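 also: compound exposure lasted between 18 and 24 h rather than exactly 24 h; 100% = carrier-treated control wells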
Recorded measurements of viability, one per entry
Hi! Could you send only the number? It should be in %, unit omitted.

Example cases with answers are listed next.
c1ccc(-c2nnc(SCc3nc4ccccc4[nH]3)o2)cc1 = 94
Cn1nnnc1SCC(=O)Nc1ccccc1C(=O)NCc1ccccc1 = 99
CCCNC(=O)CS(=O)(=O)Cc1nc(-c2cccc(OC)c2)oc1C = 86
COC(=O)c1ccsc1NC(=O)CN1C(=O)CCC1=O = 83.5
Cc1nc2ccccc2c2oc(C(=O)NCCCN3CCCC3=O)cc12 = 91

The recorded viability for CC(=O)OC1c2ccccc2C(=O)N1Cc1ccccc1Cl (stereo unspecified) is 93.5
